target: human CSNK1D (Homo sapiens, UniProt P48730); test: Whole Cell nBRET CSNK1D Binding Assay; details: living CHO cells stably expressing human CSNK1D tagged with nanoluciferase; NanoBret tracer 130 nM; 2 hours at 37 C
Sequence (P48730 whole entry): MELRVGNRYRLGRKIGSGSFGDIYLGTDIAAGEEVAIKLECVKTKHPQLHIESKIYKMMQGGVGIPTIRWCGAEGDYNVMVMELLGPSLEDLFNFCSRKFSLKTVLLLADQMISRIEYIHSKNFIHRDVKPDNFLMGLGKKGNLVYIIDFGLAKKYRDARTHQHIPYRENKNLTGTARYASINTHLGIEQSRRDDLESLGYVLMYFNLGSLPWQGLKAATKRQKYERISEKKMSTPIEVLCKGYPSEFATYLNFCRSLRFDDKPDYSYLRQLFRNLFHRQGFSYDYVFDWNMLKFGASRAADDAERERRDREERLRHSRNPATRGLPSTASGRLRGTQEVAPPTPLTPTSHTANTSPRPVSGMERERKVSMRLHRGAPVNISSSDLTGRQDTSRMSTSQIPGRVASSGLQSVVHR
Param label: returns 1 when IC50 < 200 nM, returns -1 otherwise, including exact equality.

- COMPOUND: "Fc1ccc(-c2nn3c(c2-c2ccnc4[nH]ncc24)CO[C@@H](C2CC2)C3)nc1 (single isomer, unassigned) [Example 109]"
  TGT: "human CSNK1D (Homo sapiens, UniProt P48730)"
  GROUP: -1
- COMPOUND: "CC1(C(F)(F)F)Cn2nc(-c3ccc(F)cc3)c(-c3ccnc4[nH]ncc34)c2CO1 (single isomer, unassigned) [Example 416]"
  TGT: "human CSNK1D (Homo sapiens, UniProt P48730)"
  GROUP: 1
- COMPOUND: "Fc1ccc(-c2nn3c(c2-c2c(F)cnc4[nH]ncc24)OC[C@H]2C[C@H]2C3)nc1 (stereo in doubt) [Example 481]"
  TGT: "human CSNK1D (Homo sapiens, UniProt P48730)"
  GROUP: 1

Pending compound:
Determine whether this compound shows IC50 lower than 200 nM (ties excluded): Cc1cc(-c2c(-c3ccc(F)cn3)nn3c2OCC2(CC2)C3)c2cn[nH]c2n1 [Example 462] 1

Source of measurements: patent US20230339970A1
